Test system: Trypanosoma brucei rhodesiense
Assay: Antitrypanosomal activity against Trypanosoma brucei rhodesiense STIB900 by Alamar blue growth inhibition assay
Format: functional, organism-based
endpointLabel: IC50 (µM)

The cases that follow already have their IC50 on record.
# compound, systemName, number
measured = [
    ("CN1C(=O)C2Cc3ccccc3CN2c2ccc([N+](=O)[O-])cc21 (stereo not drawn)", "Trypanosoma brucei rhodesiense", 61.1),
    ("O=C(NN1CCc2ccccc2C1)c1cc([N+](=O)[O-])ccc1Cl", "Trypanosoma brucei rhodesiense", 55.5),
    ("CSc1ccc(OCc2ncc([N+](=O)[O-])n2C)cc1", "Trypanosoma brucei rhodesiense", 1.71),
]

1: O=c1c2cc([N+](=O)[O-])ccc2[nH]n1Cc1ccccn1
2: COc1nn(Cc2cccc(Cn3nc(OC)c4cc([N+](=O)[O-])ccc43)n2)c2ccc([N+](=O)[O-])cc12
IC50 comparison. Which is larger, 1 or 2 ? Returns: label corresponding to the selected item.
1

P: O=C(Cc1cc([N+](=O)[O-])ccc1F)NN1Cc2ccccc2C1
Q: CN1C(=O)C2Cc3ccccc3CCN2c2ccc([N+](=O)[O-])cc21 (stereo not drawn)
R: O=c1[nH]n(-c2ccccc2)c2ccc([N+](=O)[O-])cc12
# ascending order, key=IC50 Response format: the labels, sorted as the prompt asks.
Q, R, P

1: O=C1C[N+]2(CCCCC2)c2ccc([N+](=O)[O-])cc21
2: O=C(NN(Cc1ccccc1)Cc1ccccc1)c1cc([N+](=O)[O-])ccc1Cl
3: O=C(NN(c1ccccc1)c1ccccc1)c1cc([N+](=O)[O-])ccc1F
Parameters: sort_field (IC50), sort_dir (desc). Response format: the labels, sorted as the prompt asks.
1, 2, 3

a: C[n+]1cccc2c(=O)n3n(c21)Cc1ccccc1C3
b: Cn1c(=O)c2cc([N+](=O)[O-])ccc2n1Cc1ccccc1
c: CN(C)CCCOc1nn(Cc2ccccc2F)c2ccc([N+](=O)[O-])cc12
d: O=c1c2cc([N+](=O)[O-])ccc2n2n1Cc1ccccc1C2
Parameters: sort_field (IC50), sort_dir (desc). Response format: the labels, sorted as the prompt asks.
a, b, d, c

P: O=[N+]([O-])c1ccc2c(c1)c(OCc1ccccc1)nn2Cc1ccccc1-c1ccccc1Cn1nc(OCc2ccccc2)c2cc([N+](=O)[O-])ccc21
Q: Cn1c2ccc([N+](=O)[O-])cc2c(=O)n1-c1ccccc1
R: O=c1c2cc([N+](=O)[O-])ccc2n(Cc2ccccc2)n1Cc1ccccc1
# ascending order, key=IC50 Response format: the labels, sorted as the prompt asks.
R, P, Q

I: O=C(NN1Cc2ccccc2C1)c1cc([N+](=O)[O-])ccc1Cl
II: O=[N+]([O-])c1ccc2c(c1)CC([O-])=N[N+]21CCCCC1
III: O=C(NN1CCc2ccccc2C1)c1cc([N+](=O)[O-])ccc1F
IV: O=C(NN(Cc1ccccc1)Cc1ccccc1)c1ccccc1Cl
V: CCOc1ccc([N+](=O)[O-])cc1C(=O)NN(c1ccccc1)c1ccccc1
# ascending order, key=IC50 Response format: the labels, sorted as the prompt asks.
V, III, IV, I, II
(V: 14.2 µM, III: 23.1 µM, IV: 55.9 µM, I: 97.3 µM, II: 198 µM)

1: O=C(NN1CCCCC1)c1cc([N+](=O)[O-])ccc1Cl
2: O=C(NN1Cc2ccccc2C1)c1cc([N+](=O)[O-])ccc1F
Identify the entry with the smaller IC50: 1 or 2 . Returns: label corresponding to the selected item.
2
(2: 40.2 µM, 1: 212 µM)

I: CON1C(=O)C2CCCCN2c2ccc([N+](=O)[O-])cc21 (stereo not drawn)
II: O=C(NCc1cc([N+](=O)[O-])ccc1N1CCc2ccccc2C1)NCc1cc([N+](=O)[O-])ccc1N1CCc2ccccc2C1
III: CN1C(=O)CN(CCCCCN2CCCCC2)c2ccc([N+](=O)[O-])cc21
Parameters: sort_field (IC50), sort_dir (desc). Response format: the labels, sorted as the prompt asks.
I, III, II
(I: 122 µM, III: 14.6 µM, II: 7.1 µM)
